Value source: ChEMBL document CHEMBL5104149

assayed-target: Tyrosyl-DNA phosphodiesterase 1 (Homo sapiens, UniProt Q9NUW8)
Sequence (Q9NUW8 whole entry): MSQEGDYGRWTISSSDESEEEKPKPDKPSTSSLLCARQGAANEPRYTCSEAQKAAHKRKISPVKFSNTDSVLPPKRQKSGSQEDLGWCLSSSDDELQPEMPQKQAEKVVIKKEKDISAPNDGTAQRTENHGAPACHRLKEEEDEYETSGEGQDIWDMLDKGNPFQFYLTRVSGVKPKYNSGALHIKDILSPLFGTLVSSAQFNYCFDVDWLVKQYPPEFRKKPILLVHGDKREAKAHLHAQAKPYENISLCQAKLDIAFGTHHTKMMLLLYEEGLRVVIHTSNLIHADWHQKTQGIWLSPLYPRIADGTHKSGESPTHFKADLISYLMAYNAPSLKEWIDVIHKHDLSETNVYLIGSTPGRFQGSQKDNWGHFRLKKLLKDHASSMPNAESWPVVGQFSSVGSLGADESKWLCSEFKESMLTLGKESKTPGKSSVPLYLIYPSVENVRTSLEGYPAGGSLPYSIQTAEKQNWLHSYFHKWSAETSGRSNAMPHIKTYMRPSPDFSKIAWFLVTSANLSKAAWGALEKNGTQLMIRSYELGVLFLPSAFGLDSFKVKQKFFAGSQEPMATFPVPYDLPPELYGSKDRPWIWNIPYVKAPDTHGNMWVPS
experimental-details: Inhibition of recombinant human TDP1 measured by real-time oligonucleotide biosensor assay
Recorded IC50, one value per entry.
Form entry: value (µM) — number only.

See these solved cases before continuing.
Lab book: IC50 of CC(=O)C1=C(O)C=C2Oc3c(-c4csc(N/N=C/CC(C)CCC=C(C)C)n4)c(O)c(C)c(O)c3[C@@]2(C)C1=O (some centres undefined) noted as 0.016

The recorded IC50 for CC(C)=CCC/C(C)=C/COc1ccc(C2SCC(=O)N2Cc2ccccc2)cc1 (centres undefined) is 2.9

IC50 in this record for CC1(C)C2CC=C(COc3ccc(C4SCC(=O)N4Cc4ccccc4)cc3)C1C2 (centres undefined) : 1.6

Next up:
Short answer for CC1=CC[C@@H](CCOc2ccc(C3SCC(=O)N3Cc3ccccc3)cc2)C1(C)C (some centres undefined) : IC50 was 1.2

###

assayed-target: Tyrosyl-DNA phosphodiesterase 1 (Homo sapiens, UniProt Q9NUW8)
experimental-details: Inhibition of recombinant human TDP1 measured by real-time oligonucleotide biosensor assay
Entries and their measured pIC50 follow.
Lab note — pIC50 values are minus log10 of concentrations in M.

Looking up CC1(C)C2CC=C(CCOc3ccc(C4SCC(=O)N4Cc4ccccc4)cc3)C1C2 (stereo unspecified) , I see its pIC50 listed as 5.68

For this compound ( COc1cnc2c(c1)C(=O)c1c-2n(CCCNC2=NCCS2)c(=O)c2cc([N+](=O)[O-])ccc12 ), measured pIC50 is 4.92

Here's the next entry for you.
// field: pIC50; key: CC(C)CCCC(C)CCOc1ccc(C2SCC(=O)N2Cc2ccccc2)cc1 (stereo unspecified) ; value = 5.92

###

experimental-details: Cytotoxicity against human HeLa cells
Type: toxicity, cell-based
assay-readout: CC50 (µM)
I only need the number, in µM, no unit after it.

Short answer for CC1=CC[C@@H](CCOc2ccc(C3SCC(=O)N3Cc3ccccc3)cc2)C1(C)C (stereo not given in full) : CC50 was 79

CC50 reported for this compound CC1(C)C2CC=C(COc3ccc(C4SCC(=O)N4Cc4ccccc4)cc3)C1C2 (stereo not given) : 74

Would you kindly look at the next entry?
For record CC(C)CCCC(C)CCOc1ccc(C2SCC(=O)N2Cc2ccccc2)cc1 (stereo not given) the listed CC50 is 66

###

System: HeLa
experimental-details: Synergistic cytotoxicity against human HeLa cells assessed as combination index at 20 uM in presence of 5 uM topotecan
Assay type: functional
assay-readout: CI

Briefly, CI measured for CC1=CC[C@@H](CCOc2ccc(C3SCC(=O)N3Cc3ccccc3)cc2)C1(C)C (stereo not given in full) : 0.16

// CI value for CC(C)=CCC/C(C)=C/COc1ccc(C2SCC(=O)N2Cc2ccccc2)cc1 (stereo not given) : 0.13

For this molecule ( CC1(C)C2CC=C(COc3ccc(C4SCC(=O)N4Cc4ccccc4)cc3)C1C2 (stereo not given) ), measured CI is 0.21

For reference, reported CI for CC1(C)C2CC=C(CCOc3ccc(C4SCC(=O)N4Cc4ccccc4)cc3)C1C2 (stereo not given) stands at 0.21

Switching to the query record.
Reported CI for CC(C)CCCC(C)CCOc1ccc(C2SCC(=O)N2Cc2ccccc2)cc1 (stereo not given) was 0.29

###

experimental-details: Cytotoxicity against human HEK293-A cells
Format: toxicity, cell-based
assay-readout: CC50 (µM)
Answer in µM, number only, no unit symbol.

Briefly, CC50 measured for CC1(C)C2CC=C(COc3ccc(C4SCC(=O)N4Cc4ccccc4)cc3)C1C2 (stereo not given) : 51

Here is the next item to consider.
# CC50 of CC1=CC[C@@H](CCOc2ccc(C3SCC(=O)N3Cc3ccccc3)cc2)C1(C)C (stereo not given in full) = 90

###

assayed-target: Tyrosyl-DNA phosphodiesterase 1 (Homo sapiens, UniProt Q9NUW8)
experimental-details: Inhibition of recombinant human TDP1 measured by real-time oligonucleotide biosensor assay
Listed compounds paired with reported IC50

Value of measured IC50 for the entry COc1ccc(C2SCC(=O)N2Cc2ccccc2)cc1 (stereo not drawn) : > 100 µM

Just so you know, measured IC50 for CC(C)=CCCC(C)CC1SCC(=O)N1Cc1ccccc1 (stereo not drawn) came out at > 100 µM

Proceed to the following item.
The recorded IC50 for O=C1CSC(c2ccccc2)N1Cc1ccccc1 (stereo not drawn) is > 100 µM

###

experimental-details: Cytotoxicity against human HEK293-A cells
Type: toxicity, cell-based
Each entry below lists one item and its recorded CC50 value.

Record summary for CC1(C)C2CC=C(CCOc3ccc(C4SCC(=O)N4Cc4ccccc4)cc3)C1C2 (stereo not drawn) : reported CC50 = > 100 µM

CC50 in this record for CC(C)=CCC/C(C)=C/COc1ccc(C2SCC(=O)N2Cc2ccccc2)cc1 (stereo not drawn) : > 100 µM

---
For record CC(C)CCCC(C)CCOc1ccc(C2SCC(=O)N2Cc2ccccc2)cc1 (stereo not drawn) the listed CC50 is > 100 µM
